# IC50 listing for each entry below
Biological target: OX1 receptor (Homo sapiens (Human), UniProt O43613)
Sequence (O43613 whole entry): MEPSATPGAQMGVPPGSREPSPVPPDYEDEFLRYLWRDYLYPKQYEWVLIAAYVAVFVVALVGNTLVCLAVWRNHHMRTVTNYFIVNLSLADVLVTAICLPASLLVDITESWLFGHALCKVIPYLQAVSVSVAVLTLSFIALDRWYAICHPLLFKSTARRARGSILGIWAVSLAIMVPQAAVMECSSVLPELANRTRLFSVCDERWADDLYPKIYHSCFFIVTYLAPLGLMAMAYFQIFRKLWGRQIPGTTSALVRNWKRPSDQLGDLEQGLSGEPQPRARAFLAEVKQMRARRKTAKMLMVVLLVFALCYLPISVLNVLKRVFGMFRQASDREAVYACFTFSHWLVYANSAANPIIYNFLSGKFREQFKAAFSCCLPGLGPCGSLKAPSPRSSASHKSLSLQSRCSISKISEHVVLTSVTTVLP
Assay: In vitro activity test (Cisbio IP-one, CHO-K1-OX1 cells, antagonism of EC80 Orexin A)

See these solved cases before continuing.
{"columns": ["recordSmiles", "measurement"],
 "data": [
  ["Cc1cc(C)nc(N2C[C@H]3CN(C(=O)c4c(-c5ccccn5)nn5ccccc45)C[C@H]3C2)n1", "> 1 µM"],
  ["Cc1cc(C)nc(N2C[C@H]3CN(C(=O)c4c(-c5cccs5)nn5ccccc45)C[C@H]3C2)n1", "> 1 µM"],
  ["Cc1cc(C)nc(N2C[C@H]3CN(C(=O)c4c(-c5ccncc5)nn5ccccc45)C[C@H]3C2)n1", "> 1 µM"],
  ["Cc1cc(C)nc(N2C[C@H]3CN(C(=O)c4c(-c5ncccc5F)cn5ccccc45)C[C@H]3C2)n1", "> 1 µM"],
  ["Cc1nc(N2C[C@H]3CN(C(=O)c4c(-c5ncccc5F)cn5ccccc45)C[C@H]3C2)nn2cccc12", "> 1 µM"],
  ["Cc1cc(C)nc(N2C[C@H]3CN(C(=O)c4c(-c5ccccc5)nn5cccnc45)C[C@H]3C2)n1", "> 1 µM"]
]}

input: Please give the documented IC50 of `O=C(c1c(-c2ncccc2F)cn2ccccc12)N1C[C@@H]2CN(c3cnc4ccccc4n3)C[C@@H]2C1`
output: > 1 µM

input: Please give the documented IC50 of `Cc1cc(C)nc(N2C[C@H]3CN(C(=O)c4c(-c5nccs5)cn5ccccc45)C[C@H]3C2)n1`
output: > 1 µM

input: Please give the documented IC50 of `Cc1cc(C)nc(N2C[C@H]3CN(C(=O)c4c(-c5ccccc5)nn5ccncc45)C[C@H]3C2)n1`
output: > 1 µM

input: Please give the documented IC50 of `Cc1cc(C)nc(N2C[C@H]3CN(C(=O)c4c(-c5ccccc5F)cn5ccccc45)C[C@H]3C2)n1`
output: > 1 µM

input: Please give the documented IC50 of `Cc1cc(C)nc(N2C[C@H]3CN(C(=O)c4c(-c5cccnc5)nn5ccccc45)C[C@H]3C2)n1`
output: > 1 µM

---

Target: OX2 receptor (Homo sapiens (Human))
Assay: In vitro activity test (Cisbio IP-one, CHO-K1-OX2 cells, antagonism of EC80 agonist)
reportedMetric: IC50

{"columns": ["recordSmiles", "IC50"],
 "data": [
  ["Cc1cc(C)nc(N2C[C@H]3CN(C(=O)c4c(-c5ccccn5)cn5ccccc45)C[C@H]3C2)n1", "0.1 to 0.3 µM"],
  ["Cc1cc(C)nc(N2C[C@H]3CN(C(=O)c4c(-c5ncccc5C(F)(F)F)cn5ccccc45)C[C@H]3C2)n1", "0.1 to 0.3 µM"],
  ["Cc1cc(C)nc(N2C[C@H]3CN(C(=O)c4c(-c5ncco5)cn5ccccc45)C[C@H]3C2)n1", "< 0.1 µM"],
  ["Cc1nc(N2C[C@H]3CN(C(=O)c4c(-c5ncccc5F)cn5ccccc45)C[C@H]3C2)nc2ccoc12", "< 0.1 µM"]
]}

input: Quote OX2 receptor (Homo sapiens (Human)) IC50 for entry `Cc1cc(C)nc(N2C[C@H]3CN(C(=O)c4c(-c5ccccc5)nn5ccncc45)C[C@H]3C2)n1` .
output: 0.1 to 0.3 µM

input: Quote OX2 receptor (Homo sapiens (Human)) IC50 for entry `Cc1cc(C)nc(N2C[C@H]3CN(C(=O)c4c(-c5cccs5)nn5cc(F)ccc45)C[C@H]3C2)n1` .
output: < 0.1 µM

input: Quote OX2 receptor (Homo sapiens (Human)) IC50 for entry `Cc1cc(C)nc(N2C[C@H]3CN(C(=O)c4c(-c5nccs5)cn5ccccc45)C[C@H]3C2)n1` .
output: 0.1 to 0.3 µM

input: Quote OX2 receptor (Homo sapiens (Human)) IC50 for entry `Cc1cc(C)nc(N2C[C@H]3CN(C(=O)c4c(-c5cccs5)cn5ccccc45)C[C@H]3C2)n1` .
output: < 0.1 µM

input: Quote OX2 receptor (Homo sapiens (Human)) IC50 for entry `Cc1cc(C)nc(N2C[C@H]3CN(C(=O)c4c(-c5ccccc5F)cn5ccccc45)C[C@H]3C2)n1` .
output: < 0.1 µM

---

Assay: Rat pharmacokinetic parameters in rat plasma
Format: in vivo
Details: male SD rats, PO 10 mg/kg
reportedMetric: AUC(0-t) (ng·h/mL)

{"columns": ["compound", "resultUnit", "AUC(0-t)"],
 "data": [
  ["Cc1cc(C)nc(N2C[C@H]3CN(C(=O)c4c(-c5ccncc5)nn5ccccc45)C[C@H]3C2)n1 [Example 34]", "ng·h/mL", 560]
]}

(1) Cc1cc(C)nc(N2C[C@H]3CN(C(=O)c4c(-c5ccccn5)nn5cc(F)ccc45)C[C@H]3C2)n1 [Example 30]
(2) Cc1cc(C)nc(N2C[C@H]3CN(C(=O)c4c(-c5ncccc5F)cn5ccccc45)C[C@H]3C2)n1 [Example 3]
input: Given the listed records, identify the one among 1 and 2 with higher AUC(0-t). Mark your selection by writing its label.
output: 2

---

Tested on: ICR mice
Assay: Autonomous activities of mice
Type: in vivo
Conditions: male ICR mice, 10 mg/kg, vs vehicle
reportedMetric: Inhibition rate (%)
Express the result in % but write the number alone.

{"columns": ["recordSmiles", "Inhibition rate (%)"],
 "data": [
  ["Cc1cc(C)nc(N2C[C@H]3CN(C(=O)c4c(-c5cccs5)nn5cc(F)ccc45)C[C@H]3C2)n1", 5.03],
  ["Cc1cc(C)nc(N2C[C@H]3CN(C(=O)c4c(-c5cccs5)nn5ccccc45)C[C@H]3C2)n1", 2.37],
  ["Cc1cc(C)nc(N2C[C@H]3CN(C(=O)c4c(-c5ncccc5F)cn5ccccc45)C[C@H]3C2)n1", "−5.22"],
  ["Cc1cc(C)nc(N2C[C@H]3CN(C(=O)c4c(-c5cccnc5)nn5ccccc45)C[C@H]3C2)n1", 32.08]
]}

Let us examine a further case.
input: Please give the documented Inhibition rate (%) of `Cc1cc(C)nc(N2C[C@H]3CN(C(=O)c4c(-c5ccncc5)nn5ccccc45)C[C@H]3C2)n1`
output: 8.19

---

# IC50 listing for each entry below
Biological target: OX2 receptor (Homo sapiens (Human), UniProt O43614)
Sequence (O43614 whole entry): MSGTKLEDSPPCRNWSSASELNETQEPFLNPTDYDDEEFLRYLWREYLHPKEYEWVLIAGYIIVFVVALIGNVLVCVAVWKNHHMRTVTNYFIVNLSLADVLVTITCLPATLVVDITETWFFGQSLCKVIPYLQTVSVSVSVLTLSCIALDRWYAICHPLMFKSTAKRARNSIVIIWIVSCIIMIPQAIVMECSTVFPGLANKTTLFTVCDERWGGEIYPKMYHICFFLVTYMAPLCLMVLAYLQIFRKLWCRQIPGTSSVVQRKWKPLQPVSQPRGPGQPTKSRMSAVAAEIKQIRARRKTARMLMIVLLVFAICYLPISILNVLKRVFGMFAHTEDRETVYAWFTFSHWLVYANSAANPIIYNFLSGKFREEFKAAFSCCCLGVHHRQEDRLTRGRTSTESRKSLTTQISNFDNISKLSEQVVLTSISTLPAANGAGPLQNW
Assay: In vitro activity test (Cisbio IP-one, CHO-K1-OX2 cells, antagonism of EC80 agonist)

See these solved cases before continuing.
{"columns": ["recordSmiles", "IC50"],
 "data": [
  ["O=C(c1c(-c2ncccc2F)cn2ccccc12)N1C[C@@H]2CN(c3cnc4ccccc4n3)C[C@@H]2C1", "0.1 to 0.3 µM"],
  ["Cc1cc(C)nc(N2C[C@H]3CN(C(=O)c4c(-c5ccccn5)cn5cc(F)ccc45)C[C@H]3C2)n1", "< 0.1 µM"],
  ["Cc1cc(C)nc(N2C[C@H]3CN(C(=O)c4c(-c5ncccn5)cn5ccccc45)C[C@H]3C2)n1", "< 0.1 µM"],
  ["Cc1cc(C)nc(N2C[C@H]3CN(C(=O)c4c(-c5ccccc5)nn5cccnc45)C[C@H]3C2)n1", "0.1 to 0.3 µM"],
  ["Cc1cc(C)nc(N2C[C@H]3CN(C(=O)c4c(-c5ccsc5)cn5ccccc45)C[C@H]3C2)n1", "< 0.1 µM"]
]}

input: Please give the documented IC50 of `Cc1cc(C)nc(N2C[C@H]3CN(C(=O)c4c(-c5ccncc5)nn5ccccc45)C[C@H]3C2)n1`
output: < 0.1 µM

input: Please give the documented IC50 of `Cc1cc(C)nc(N2C[C@H]3CN(C(=O)c4c(-c5ccccc5)cn5ccccc45)C[C@H]3C2)n1`
output: 0.1 to 0.3 µM

---

Test: Rat pharmacokinetic parameters in rat plasma
Type: in vivo
Settings: male SD rats, iv 1 mg/kg
reportedMetric: AUC(0-t) (ng·h/mL)

{"columns": ["molecule", "AUC(0-t) / ng·h/mL"],
 "data": [
  ["Cc1cc(C)nc(N2C[C@H]3CN(C(=O)c4c(-c5ccccn5)nn5cc(F)ccc45)C[C@H]3C2)n1 [Example 30]", 143]
]}

(P) Cc1cc(C)nc(N2C[C@H]3CN(C(=O)c4c(-c5ncccc5F)cn5ccccc45)C[C@H]3C2)n1 [Example 3]
(Q) Cc1cc(C)nc(N2C[C@H]3CN(C(=O)c4c(-c5ccncc5)nn5ccccc45)C[C@H]3C2)n1 [Example 34]
input: Given the listed records, identify the one among P and Q with higher AUC(0-t). Mark your selection by writing its label.
output: P
(P: 355 ng·h/mL, Q: 221 ng·h/mL)

---

Test: Rat pharmacokinetic parameters in rat plasma
Format: in vivo
Conditions: male SD rats, PO 10 mg/kg vs iv 1 mg/kg, read-out: F (%) oral bioavailability
reportedMetric: bioavailability (%)

{"columns": ["recordSmiles", "resultUnit", "bioavailability"],
 "data": [
  ["Cc1cc(C)nc(N2C[C@H]3CN(C(=O)c4c(-c5ccccn5)nn5cc(F)ccc45)C[C@H]3C2)n1", "%", 24.6]
]}

(1) Cc1cc(C)nc(N2C[C@H]3CN(C(=O)c4c(-c5ncccc5F)cn5ccccc45)C[C@H]3C2)n1
(2) Cc1cc(C)nc(N2C[C@H]3CN(C(=O)c4c(-c5ccncc5)nn5ccccc45)C[C@H]3C2)n1
input: Given the listed records, identify the one among 1 and 2 with higher bioavailability. Mark your selection by writing its label.
output: 1

Recorded values, source patent US20250188095A1.
